Cited source: the Deep4Chem optical property database

test: photoluminescence quantum yield (fraction); solvent given as SMILES; details: in ClCCl
Short version: photoluminescence quantum yield at least 0.3 is y, less is n.

Observe how each entry below is paired with its result.
| chem_smiles | label_value |
| --- | --- |
| CCCCCc1c(C)c2c3ccccc3[nH]c2c2ccccc12 | n |
| Cc1ccc(C(=O)NN2C3=C(CC4=C2CCCC4=O)C(=O)CCC3)cc1 | y |
| O=S(=O)(/N=c1\oc2cccc3c4c(-c5ccccc5)oc5cccc(c(c1-c1ccccc1)c23)c54)C(F)(F)F | y |
| CCCCCCC1(CCCCCC)c2cc(-c3nc(-c4ccc5c(c4)C(CCCCCC)(CCCCCC)c4cc(-n6c7ccc(C(C)(C)C)cc7c7cc(C(C)(C)C)ccc76)ccc4-5)nc(-c4ccc5c(c4)C(CCCCCC)(CCCCCC)c4cc(-n6c7ccc(C(C)(C)C)cc7c7cc(C(C)(C)C)ccc76)ccc4-5)n3)ccc2-c2ccc(-n3c4ccc(C(C)(C)C)cc4c4cc(C(C)(C)C)ccc43)cc21 | y |
| CCOC(=O)COc1ccc(/C=C/C2=[N+]3C(=Cc4c5ccccc5c(-c5[nH]c(C)cc5C)n4[B-]3(F)F)C(C)=C2)cc1 | y |

Here's the next entry for you.
**Query** Check the entry CC(C)(C)C#Cc1cc2c(C#CC(C)(C)C)c(C#CC(C)(C)C)c3cc(C#CC(C)(C)C)cc4c(C#CC(C)(C)C)c(C#CC(C)(C)C)c(c1)c2c34 : does photoluminescence quantum yield equal or exceed 0.3?
**Result** n
